Target: Serine/threonine-protein kinase mTOR (Homo sapiens, UniProt P42345)
Test: Inhibition of mTOR by DELFIA
READOUT KIND: IC50 (nM)

Checklist item: IC50 tested on Serine/threonine-protein kinase mTOR (Homo sapiens, UniProt P42345), entry CCn1nnc2c(N3CCOCC3)nc(-c3ccc(NC(=O)Nc4ccc(C(=O)NCCN(C)C)cc4)cc3)nc21 , value?
0.5

P. CCn1nnc2c(N3CCOCC3)nc(-c3ccc(NC(=O)Nc4ccncc4)cc3)nc21
Q. CCn1nnc2c(N3CCOCC3)nc(-c3ccc(NC(=O)Nc4ccc(C(=O)N5CCN(C)CC5)cc4)cc3)nc21
Name the one with the greater IC50 value, either P or Q as given. Please reply using the label of the selected record.
Q
(Q: 1.7 nM, P: 0.63 nM)

a. CC(C)n1nnc2c(N3CCOCC3)nc(-c3ccc(NC(=O)Nc4ccc(CO)cc4)cc3)nc21
b. CCNC(=O)c1ccc(NC(=O)Nc2ccc(-c3nc(N4CCOCC4)c4nnn(CC)c4n3)cc2)cc1
Please indicate which item has the smaller measured IC50: a versus b Please reply using the label of the selected record.
a

P. CCn1nnc2c(N3CCOCC3)nc(-c3ccc(NC(=O)Nc4ccc(C(=O)NCCN5CCN(C)CC5)cc4)cc3)nc21
Q. O=C(Nc1ccc(-c2nc(N3CCOCC3)c3nnn(C4CC4)c3n2)cc1)Nc1cccs1
Please indicate which item has the smaller measured IC50: P versus Q Please reply using the label of the selected record.
P

A. OCc1cccc(-c2nc(N3CCOCC3)c3nnn(C4CCN(Cc5ccccc5)CC4)c3n2)c1
B. CCn1nnc2c(N3CCOCC3)nc(-c3ccc(NC(=O)Nc4ccc(C(=O)NCCc5ccccn5)cc4)cc3)nc21
Please indicate which item has the smaller measured IC50: A versus B Please reply using the label of the selected record.
B
